System: human lung cancer strain NCI-H441;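 note: cell proliferation inhibition after four days measured by CellTiter-Glo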
Test: cells
Settings: NCI-H441, 96 h, read-out: NCI-H441 IC50 (nM), NCI-H441 cell proliferation, 4 days, CellTiter-Glo
Metric: IC50 (nM)
Just the number please, in nM, no unit attached.

Solved entries (count: 2):
>  <Mol>
CCO[C@@H]1C[C@H]2C(=O)NC3(CCC3)C(=O)N(C)[C@@H](C3CCCC3)C(=O)N(C)[C@H](C(=O)N(C)CC)CC(=O)N(C)[C@@H](CC3CCC3)C(=O)N[C@@H]([C@@H](C)CC)C(=O)N(C)CC(=O)N(C)[C@H]3C/C=C\CCN(C3=O)[C@@H](Cc3ccc(C(F)(F)F)cc3)C(=O)N(C)CC(=O)N[C@@H](CCc3cc(F)c(C(F)(F)F)c(F)c3)C(=O)N2C1

>  <Reported>
2

$$$$
>  <Mol>
CC[C@H](C)[C@@H]1NC(=O)[C@H](CC)N(C)C(=O)C[C@@H](C(=O)N(C)C)N(C)C(=O)[C@H](C2CCCC2)N(C)C(=O)C2(CC(C)(C)C2)NC(=O)[C@@H]2C[C@H](C)CN2C(=O)[C@H](CCc2ccc(C(F)(F)F)c(OC)c2)NC(=O)CN(C)C(=O)[C@H](Cc2ccc(C)cc2)N2CC/C=C\C[C@@H](C2=O)N(C)C(=O)CN(C)C1=O

>  <Reported>
10.7

$$$$

We now examine a further compound.
Task: Kindly indicate its recorded IC50. Item: `CCO[C@@H]1C[C@H]2C(=O)NC3(CC(C)(C)C3)C(=O)N(C)[C@@H](C3CCCC3)C(=O)N(C)[C@H](C(=O)N(C)CC)CC(=O)N(C)[C@@H](COC)C(=O)N[C@@H]([C@@H](C)CC)C(=O)N(C)CC(=O)N(C)[C@H]3C/C=C\CCN(C3=O)[C@@H](Cc3ccc(C(F)(F)F)cc3)C(=O)N(C)CC(=O)N[C@@H](CCc3cc(F)c(C(F)(F)F)c(F)c3)C(=O)N2C1`
Output: 3
